Species: Rattus norvegicus
test: In vitro relative potency for the inhibition of growth hormone release
Format: functional
readout-type: Relative potency
Would you mind answering with just the numeric figure?

# annotated cases, reported Relative potency shown
C[C@H](N)C(=O)NCC(=O)N[C@H]1CSSC[C@@H](C(=O)O)NC(=O)[C@H](CO)NC(=O)[C@H]([C@@H](C)O)NC(=O)[C@H](Cc2ccccc2)NC(=O)[C@H]([C@@H](C)O)NC(=O)[C@H](CCCCN)NC(=O)[C@H](Cc2c[nH]c3ccccc23)NC(=O)[C@H](Cc2ccccc2)NC(=O)[C@H](Cc2ccccc2)NC(=O)[C@H](CC(N)=O)NC(=O)[C@H](CCCCN)NC1=O = 1
C[C@H](O)[C@H]1NC(=O)[C@@H](Cc2ccccc2)NC(=O)[C@@H](C)N(C)C(=O)[C@@H](Cc2ccccc2)NC(=O)[C@H](Cc2c[nH]c3ccccc23)CNC(=O)[C@@H](CCCCN)NC1=O = 0.003
C[C@H](O)[C@H]1NC(=O)[C@@H](Cc2ccccc2)N(C)C(=O)[C@@H](C)NC(=O)[C@@H](Cc2ccccc2)NC(=O)[C@H](Cc2c[nH]c3ccccc23)CNC(=O)[C@@H](CCCCN)NC1=O = 0.27
C[C@H](O)[C@H]1NC(=O)[C@@H](Cc2ccccc2)N(C)C(=O)[C@@H](C)NC(=O)[C@@H](Cc2ccccc2)NC(=O)[C@@H](Cc2c[nH]c3ccccc23)CNC(=O)[C@H](CCCCN)NC1=O = 0.88

Field: next compound
Lab note: measured Relative potency of C[C@@H](O)[C@@H]1NC(=O)[C@H](CCCCN)NC(=O)[C@@H](Cc2c[nH]c3ccccc23)NC(=O)[C@H](Cc2ccccc2)NC(=O)[C@@H]2CCCN2C(=O)[C@H](Cc2ccccc2)N(C)C1=O was 0.53
